The reported numbers originate from ChEMBL document CHEMBL4715787.

- TEST: Lipophilicity, log D of compound in n-octanol and phosphate buffered saline at pH 7.5 by shake flask method
- Assay type: physicochemical
EXPERIMENTAL READOUT: logD

• CCCCCCCC(=O)NCCc1cc(O)c(O)cc1[18F] = 3.35
